Each entry below carries its reported GI50.
system: SN12C
State the answer as a number, implicitly in µM.

Query CCOc1ccc(NC2=C(Cl)C(=O)c3nc(C)ccc3C2=O)cc1 on SN12C; GI50 returned: 1.58

Query COc1cc(NC2=C(Cl)C(=O)c3nc(C)ccc3C2=O)cc(OC)c1 on SN12C; GI50 returned: 1.71

Query CCOc1ccccc1NC1=C(Cl)C(=O)c2nc(C)ccc2C1=O on SN12C; GI50 returned: 1.59

Query COc1ccccc1NC1=C(Cl)C(=O)c2nc(C)ccc2C1=O on SN12C; GI50 returned: 1.7

====

Each entry below carries its reported half-life at 0.5 µM.
experiment: In vitro metabolic stability; type: in vitro ADME, dog (Beagle); settings: male, Beagle, pH 7.4; Dog liver microsomes
State the answer as a number, implicitly in min.

CCOc1ccccc1NC1=C(Cl)C(=O)c2nc(C)ccc2C1=O	17

For COc1ccccc1NC1=C(Cl)C(=O)c2nc(C)ccc2C1=O the compound record lists half-life at 0.5 µM as 31

Values compiled from paper PMC11200585.
